All figures here come from the supplement of paper PMC12632987.

tgt: T1, USP38, Q8NB14
T1 chain: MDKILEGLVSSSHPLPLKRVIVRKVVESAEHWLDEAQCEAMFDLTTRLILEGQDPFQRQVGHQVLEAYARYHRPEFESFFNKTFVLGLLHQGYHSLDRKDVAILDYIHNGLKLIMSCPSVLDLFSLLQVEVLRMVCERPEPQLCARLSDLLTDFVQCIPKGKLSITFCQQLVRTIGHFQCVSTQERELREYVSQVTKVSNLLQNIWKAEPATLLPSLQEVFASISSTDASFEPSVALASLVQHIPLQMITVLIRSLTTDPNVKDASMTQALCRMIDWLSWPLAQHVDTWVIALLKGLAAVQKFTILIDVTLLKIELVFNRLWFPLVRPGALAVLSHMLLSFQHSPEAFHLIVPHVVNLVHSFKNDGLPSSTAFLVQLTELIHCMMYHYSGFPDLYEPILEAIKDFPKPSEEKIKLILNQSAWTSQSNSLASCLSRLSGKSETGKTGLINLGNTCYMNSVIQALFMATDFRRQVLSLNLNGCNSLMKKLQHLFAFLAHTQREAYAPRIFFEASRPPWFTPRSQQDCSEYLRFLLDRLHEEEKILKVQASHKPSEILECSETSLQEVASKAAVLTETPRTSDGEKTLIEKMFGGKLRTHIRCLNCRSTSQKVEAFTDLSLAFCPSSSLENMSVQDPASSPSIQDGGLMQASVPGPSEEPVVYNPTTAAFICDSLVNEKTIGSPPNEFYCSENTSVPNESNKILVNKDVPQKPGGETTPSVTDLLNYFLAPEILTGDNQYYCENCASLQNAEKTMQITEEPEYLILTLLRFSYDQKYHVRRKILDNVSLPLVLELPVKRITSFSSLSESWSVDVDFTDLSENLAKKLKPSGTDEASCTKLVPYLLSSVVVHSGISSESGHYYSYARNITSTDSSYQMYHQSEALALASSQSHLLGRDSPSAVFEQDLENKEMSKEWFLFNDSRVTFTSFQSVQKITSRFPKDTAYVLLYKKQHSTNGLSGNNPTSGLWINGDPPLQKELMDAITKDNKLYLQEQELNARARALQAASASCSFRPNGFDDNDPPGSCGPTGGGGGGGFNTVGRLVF
method_summary: median log2 fold change of GCK-ALFA target abundance (FLAG IP / Myc IP barcode read proportion) (log2 ratio); each designed protein is fused to an ALFA-tag nanobody in HEK293 cells to bring the named protein to FLAG-tagged glucokinase (GCK); Myc marks an untargeted standard; higher = target protein stabilised (more abundant)
condition_summary: target protein: 3xFLAG-MCP-GCK-ALFA reporter; HEK293 landing pad (RPLP)
value_kind: median log2 fold change
Hey, just send me the number, nothing else.

usp_38_diff_out_14_75_135 (protein) SEREELERRLEELEERLARLVAEGVISGRTEVKLGAVLHVARLAIEEGRLEEARKLLEIVERALADPERADEILEENEDFIVSTYLELELRRLAEEEAKR = -0.475

Challenge: Which median log2 fold change is reported for this binder? usp_38_diff_out_18_28_390 (protein) EEEERERLERRLRELERELDALIDEATAAITEALTAHPDDEEVWALVDALLDSLGRAAAALNEARRLLAEGGPLEEVERALEEAERHLREAKALLAELKA
Response given: 0.124

Challenge: Which median log2 fold change is reported for this binder? usp_38_diff_out_18_28_403 (protein) MQEEVEKKIKEAEKKTDELIDKYTEAATAGFLKYAEDPSATELVEAVRAAADALGAAAQAVNEMKRNKDDPEKVEELLKKFEEAYKKAEEALKEIERLIA
Response given: -0.0578

Challenge: Which median log2 fold change is reported for this binder? usp_38_diff_out_17_125_221 (protein) TDEELKKEIEEALKKAEELLKKAKKLLEEGAPFEEIRAELDKAADALGKLAVLLRELREKSEDKAQAAKFIKEATERANKLIDEYTKLATEAFLREAEAA
Response given: -0.359
